# Procedure Summary: excess molar enthalpy (molar enthalpy of mixing); xn = mol fraction of the nth substance listed
# Stated Conditions: 313.15 K; 101 kPa; Liquid; Flow calorimetry; x1 = 0.1505
Measurement Label: excess molar enthalpy (kcal/mol)

>>> val("CC(C)CC(C)(C)C [2,2,4-trimethylpentane] + CCCCO")
0.072
>>> val("C1CCCCC1 [cyclohexane] + CCCCO")
0.0679
>>> val("C=CCCCC [hex-1-ene] + CCCCO")
0.0602
>>> val("CC1CCCCC1 [methylcyclohexane] + CCCCO")
0.0629
